List of pKi values.
biological target: E. coli rEcPepN (Escherichia coli); assay: rEcPepN inhibition, Leu-pNA substrate, Dixon method; assay type: biochemical
Sequence (P04825 whole entry): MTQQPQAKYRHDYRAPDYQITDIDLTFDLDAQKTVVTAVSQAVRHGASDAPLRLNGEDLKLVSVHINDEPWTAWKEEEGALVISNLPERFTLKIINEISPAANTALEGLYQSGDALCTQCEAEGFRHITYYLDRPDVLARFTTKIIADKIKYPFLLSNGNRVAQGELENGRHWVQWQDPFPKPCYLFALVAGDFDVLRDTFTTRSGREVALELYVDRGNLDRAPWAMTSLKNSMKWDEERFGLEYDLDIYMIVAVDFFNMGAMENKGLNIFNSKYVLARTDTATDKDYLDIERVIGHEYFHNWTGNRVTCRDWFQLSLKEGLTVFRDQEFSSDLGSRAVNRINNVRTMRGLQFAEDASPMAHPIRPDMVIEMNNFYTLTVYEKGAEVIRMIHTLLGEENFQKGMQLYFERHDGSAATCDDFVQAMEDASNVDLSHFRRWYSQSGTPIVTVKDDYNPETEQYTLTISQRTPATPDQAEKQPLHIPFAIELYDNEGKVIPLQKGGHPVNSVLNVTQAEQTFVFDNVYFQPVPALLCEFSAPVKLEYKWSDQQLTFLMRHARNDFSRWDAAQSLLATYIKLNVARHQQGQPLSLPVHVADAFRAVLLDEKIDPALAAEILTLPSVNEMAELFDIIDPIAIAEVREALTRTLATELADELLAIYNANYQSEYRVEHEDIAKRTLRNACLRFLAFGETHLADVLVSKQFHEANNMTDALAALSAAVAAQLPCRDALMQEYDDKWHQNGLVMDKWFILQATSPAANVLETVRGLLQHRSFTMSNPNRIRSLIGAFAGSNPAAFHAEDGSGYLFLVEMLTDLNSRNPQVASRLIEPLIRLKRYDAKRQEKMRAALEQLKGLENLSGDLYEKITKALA
In textbook form, pKi equals minus log to base ten of the concentration in mol/L.

>  <compound>
NC1CCc2ccccc2CC1=O (stereo not shown) [21a]

>  <study_target>
E. coli rEcPepN (Escherichia coli)

>  <measured_quantity>
pKi

>  <value>
4.30

$$$$
>  <compound>
NC1CCc2c(Br)cccc2CC1=O (stereo not shown) [21e]

>  <study_target>
E. coli rEcPepN (Escherichia coli)

>  <measured_quantity>
pKi

>  <value>
5.34

$$$$
>  <compound>
NC1CCc2cccc(Br)c2CC1=O (stereo not shown) [21b]

>  <study_target>
E. coli rEcPepN (Escherichia coli)

>  <measured_quantity>
pKi

>  <value>
5.97

$$$$

Req: What value of pKi has been reported for the following compound? NC1CCc2cccc(-c3ccccc3)c2CC1=O (stereo not shown) [21c]
Resp: 6.80

----------
Biological target: P. falciparum rPfAM17 (Plasmodium falciparum, UniProt Q8IL11)
Construct: made in house; host or cells: Escherichia coli Rosetta 2 (DE3)
Sequence (Q8IL11 1-605): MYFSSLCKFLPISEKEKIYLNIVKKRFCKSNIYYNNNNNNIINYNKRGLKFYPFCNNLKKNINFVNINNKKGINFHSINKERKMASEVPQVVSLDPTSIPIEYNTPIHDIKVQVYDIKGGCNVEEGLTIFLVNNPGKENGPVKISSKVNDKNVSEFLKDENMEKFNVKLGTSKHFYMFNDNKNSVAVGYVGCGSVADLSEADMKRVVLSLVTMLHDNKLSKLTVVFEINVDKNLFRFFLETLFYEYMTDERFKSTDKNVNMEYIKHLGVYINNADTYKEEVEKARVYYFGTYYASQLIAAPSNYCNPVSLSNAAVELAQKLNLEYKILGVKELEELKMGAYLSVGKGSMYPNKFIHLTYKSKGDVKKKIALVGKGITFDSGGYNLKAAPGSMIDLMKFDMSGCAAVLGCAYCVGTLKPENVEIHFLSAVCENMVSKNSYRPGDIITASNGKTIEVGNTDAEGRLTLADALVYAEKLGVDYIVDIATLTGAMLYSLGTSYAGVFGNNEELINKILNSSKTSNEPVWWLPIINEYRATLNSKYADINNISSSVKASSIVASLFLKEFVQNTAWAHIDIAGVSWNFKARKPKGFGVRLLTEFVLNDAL
Assay: rPfAM17 inhibition, Leu-pNA substrate, Dixon plots
Assay type: biochemical
Protocol: Tests were carried out on HP/Agilent UV-Visible diode array spectrophotometer 8453 (HP/Agilent, Santa Clara, CA, USA), at 30 °C in Tris HCl 50 mM pH 7.4 for rPfAM1 and pH 8 for rPfAM17, with a final DMSO concentration of 1%. […]. […] Initial velocities were measured with increasing concentrations of inhibitors and Ki values were determined by Dixon plots in triplicate.
measured_quantity: Ki

Please review the entries below; each comes with its answer.
>  <molecule>
NC1CCc2c(cccc2-c2ccccc2)CC1=O (stereo not drawn) [21f]

>  <Ki>
> 100 µM

$$$$
>  <molecule>
NC1CCc2cccc(Br)c2CC1=O (stereo not drawn) [21b]

>  <Ki>
> 100 µM

$$$$

Please turn your attention to the following entry.
Req: What value of Ki has been reported for the following molecule? NC1CCc2c(Br)cccc2CC1=O (stereo not drawn) [21e]
Resp: > 100 µM

Reference source: paper PMC6222927
